- measured_target: ΔF508-CFTR (Homo sapiens (Human), UniProt P13569, DEL508-508)
- Sequence (P13569 other isoform, or with tags, fused parts or gaps del F508-F508): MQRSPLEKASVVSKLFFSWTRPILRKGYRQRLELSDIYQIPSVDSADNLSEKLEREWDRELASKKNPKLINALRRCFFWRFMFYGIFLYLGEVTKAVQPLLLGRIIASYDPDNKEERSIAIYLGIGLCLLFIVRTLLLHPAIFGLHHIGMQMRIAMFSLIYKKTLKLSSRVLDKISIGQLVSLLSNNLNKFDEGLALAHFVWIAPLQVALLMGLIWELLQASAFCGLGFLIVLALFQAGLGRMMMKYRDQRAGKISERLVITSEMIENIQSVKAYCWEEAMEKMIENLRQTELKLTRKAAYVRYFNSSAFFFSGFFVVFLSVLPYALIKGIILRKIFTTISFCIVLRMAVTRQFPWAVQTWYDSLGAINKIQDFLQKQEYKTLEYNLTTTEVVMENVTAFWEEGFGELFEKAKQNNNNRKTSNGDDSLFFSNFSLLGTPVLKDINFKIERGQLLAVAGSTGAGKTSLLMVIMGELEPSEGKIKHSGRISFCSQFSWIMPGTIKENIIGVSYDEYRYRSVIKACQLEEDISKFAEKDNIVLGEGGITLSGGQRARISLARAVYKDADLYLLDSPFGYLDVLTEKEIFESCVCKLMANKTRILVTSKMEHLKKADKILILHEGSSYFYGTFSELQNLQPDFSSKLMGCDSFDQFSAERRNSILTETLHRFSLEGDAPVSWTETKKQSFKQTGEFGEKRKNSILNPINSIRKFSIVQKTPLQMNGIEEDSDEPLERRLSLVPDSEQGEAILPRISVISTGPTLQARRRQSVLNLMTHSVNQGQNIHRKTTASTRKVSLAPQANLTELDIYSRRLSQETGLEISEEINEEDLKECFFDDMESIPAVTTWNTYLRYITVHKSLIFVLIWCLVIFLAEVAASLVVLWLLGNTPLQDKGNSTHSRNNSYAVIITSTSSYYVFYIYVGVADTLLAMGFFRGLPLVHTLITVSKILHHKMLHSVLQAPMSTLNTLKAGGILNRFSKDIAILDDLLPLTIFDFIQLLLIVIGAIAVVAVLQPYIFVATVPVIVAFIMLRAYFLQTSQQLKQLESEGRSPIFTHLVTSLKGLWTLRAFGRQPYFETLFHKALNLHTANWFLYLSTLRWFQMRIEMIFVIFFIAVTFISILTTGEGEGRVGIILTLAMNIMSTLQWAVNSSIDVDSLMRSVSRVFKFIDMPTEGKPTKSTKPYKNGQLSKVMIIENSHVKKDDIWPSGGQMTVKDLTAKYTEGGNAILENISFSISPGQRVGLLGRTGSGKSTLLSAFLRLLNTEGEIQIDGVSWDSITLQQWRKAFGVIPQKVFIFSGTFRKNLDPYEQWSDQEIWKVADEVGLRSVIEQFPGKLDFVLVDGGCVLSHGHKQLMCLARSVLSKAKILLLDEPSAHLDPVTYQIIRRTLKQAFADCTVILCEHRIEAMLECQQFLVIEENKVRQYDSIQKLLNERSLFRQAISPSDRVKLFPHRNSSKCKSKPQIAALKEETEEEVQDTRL
- protocol: Membrane potential optical assay, identification of correction compounds
- Format: cell-based
- test_context: read-out: Binned EC50
pEC50: −log10 of the molar value.
As shown below, each of these compounds has a reported pEC50 value.

# compound, measured_target, pEC50
measured = [
    ("COc1ccc(C2(C(=O)Nc3ccc4c(c3)cc(C(C)(C)C)n4C[C@@H](O)CO)CC2(C)C)cc1 (some centres unmarked)", "ΔF508-CFTR (Homo sapiens (Human), UniProt P13569, DEL508-508)", "> 5.70"),
    ("CC(C)(CO)c1cc2cc(NC(=O)C3(c4ccc5c(c4)OC(F)(F)O5)CC3)c(F)cc2[nH]1", "ΔF508-CFTR (Homo sapiens (Human), UniProt P13569, DEL508-508)", "5.30 to 5.70"),
    ("CC(C)(CCOC[C@@H](O)CO)c1cc2cc(NC(=O)C3(c4ccc5c(c4)OC(F)(F)O5)CC3)c(F)cc2n1C[C@@H](O)CO", "ΔF508-CFTR (Homo sapiens (Human), UniProt P13569, DEL508-508)", "5.30 to 5.70"),
    ("CC1(C)CCn2c1cc1cc(NC(=O)C3(c4ccc5c(c4)OC(F)(F)O5)CC3)c(F)cc12", "ΔF508-CFTR (Homo sapiens (Human), UniProt P13569, DEL508-508)", "> 5.70"),
    ("CC(C)(C)c1cc2cc(NC(=O)C3(c4ccc(O)c(O)c4)CC3)ccc2n1C[C@@H](O)CO", "ΔF508-CFTR (Homo sapiens (Human), UniProt P13569, DEL508-508)", "> 5.70"),
    ("CC(C)(C)c1cc2cc(NC(=O)C3(c4ccc5c(c4)OCO5)CC3)c(F)cc2n1C[C@@H](O)CO [Compound 310]", "ΔF508-CFTR (Homo sapiens (Human), UniProt P13569, DEL508-508)", "> 5.70"),
    ("COc1ccc(C2(C(=O)Nc3ccc4[nH]c(C(C)(C)C)cc4c3)CC2(C)C)cc1 (centres unmarked)", "ΔF508-CFTR (Homo sapiens (Human), UniProt P13569, DEL508-508)", "5.30 to 5.70"),
    ("CC(C)(C)c1cc2cc(NC(=O)C3(c4ccc5c(c4)OCO5)CC3)c(F)cc2n1C[C@@H](O)CO [Compound 318]", "ΔF508-CFTR (Homo sapiens (Human), UniProt P13569, DEL508-508)", "> 5.70"),
]

* * *

As shown below, each of these molecules has a reported Emax value.
- measured_target: ΔF508-CFTR (Homo sapiens (Human), UniProt P13569, DEL508-508)
- protocol: Membrane potential optical assay, identification of correction compounds
- Format: cell-based
- test_context: read-out: Max Efficacy

# molecule, Emax / %
data = [
    ("CC(C)(C)c1cc2c(C#N)c(NC(=O)C3(c4ccc5c(c4)OC(F)(F)O5)CC3)ccc2[nH]1", 102),
    ("CC(C)(CO)c1cc2cc(NC(=O)C3(c4ccc5c(c4)OC(F)(F)O5)CC3)c(F)cc2[nH]1", 94),
    ("CC(C)(C)c1cc2cc(NC(=O)C3(c4ccc5c(c4)CCC5)CC3)ccc2n1C[C@@H](O)CO", 160),
    ("CC(C)(C)c1cc2cc(NC(=O)C3(c4ccc(O)c(O)c4)CC3)ccc2n1C[C@@H](O)CO", 76),
    ("CC(C)(CCO)c1cc2cc(NC(=O)C3(c4ccc5c(c4)OC(F)(F)O5)CC3)c(F)cc2n1C[C@@H](O)CO", 126),
    ("CC(C)(CO)c1cc2cc(NC(=O)C3(c4ccc5c(c4)OC(F)(F)O5)CC3)c(F)cc2n1C[C@@H](O)CO", 106),
    ("CC(C)(C)c1cc2c(C#N)c(NC(=O)C3(c4ccc5c(c4)OC(F)(F)O5)CC3)ccc2n1CCO", 118),
    ("COc1ccc(C2(C(=O)Nc3ccc4c(c3)cc(C(C)(C)C)n4C[C@@H](O)CO)CC2(C)C)cc1 (stereo partly shown)", 126),
    ("CC(C)(CCOC[C@@H](O)CO)c1cc2cc(NC(=O)C3(c4ccc5c(c4)OC(F)(F)O5)CC3)c(F)cc2n1C[C@@H](O)CO", 100),
    ("CC(C)(CCOC[C@@H](O)CO)c1cc2cc(NC(=O)C3(c4ccc5c(c4)OC(F)(F)O5)CC3)c(F)cc2[nH]1", 126),
    ("CC(C)(C)c1cc2cc(NC(=O)C3(c4ccc5c(c4)OCO5)CC3)c(F)cc2n1C[C@@H](O)CO", 132),
    ("CC1(C)CCn2c1cc1cc(NC(=O)C3(c4ccc5c(c4)OC(F)(F)O5)CC3)c(F)cc12", 124),
    ("COc1ccc(C2(C(=O)Nc3ccc4[nH]c(C(C)(C)C)cc4c3)CC2(C)C)cc1 (stereo not shown)", 65.5),
]
